- TEST_METHOD_NOTES: activity coefficient (dimensionless); of the first substance listed, at infinite dilution; xn = mol fraction of the nth substance listed
- REPORTED_CONDITIONS: 368.15 K; Liquid; Chromatography; x1 = 0
MEASURED_PROPERTY: activity coefficient

Examples from the recorded data:
C#CCCCC [1-hexyne] + CCCC[N+]1(C)CCCC1.O=S(=O)([O-])C(F)(F)F :: 4.18
c1ccsc1 [thiophene] + CCCC[N+]1(C)CCCC1.O=S(=O)([O-])C(F)(F)F :: 1.14

A. c1ccccc1 [benzene] + CCCC[N+]1(C)CCCC1.O=S(=O)([O-])C(F)(F)F
B. CCc1ccccc1 [ethylbenzene] + CCCC[N+]1(C)CCCC1.O=S(=O)([O-])C(F)(F)F
C. CCCCCCC [heptane] + CCCC[N+]1(C)CCCC1.O=S(=O)([O-])C(F)(F)F
input: Arrange these 3 compounds in increasing order of activity coefficient. Could you list the labels in the order requested?
output: A, B, C

====

- TEST_METHOD_NOTES: activity coefficient (dimensionless); of the first substance listed, at infinite dilution; xn = mol fraction of the nth substance listed
- REPORTED_CONDITIONS: 348.15 K; Liquid; Chromatography; x1 = 0
MEASURED_PROPERTY: activity coefficient

C=CCCCC [hex-1-ene] + CCCC[N+]1(C)CCCC1.O=S(=O)([O-])C(F)(F)F :: 16.4
C=CCCCCCC [oct-1-ene] + CCCC[N+]1(C)CCCC1.O=S(=O)([O-])C(F)(F)F :: 31.2
CCCO [propan-1-ol] + CCCC[N+]1(C)CCCC1.O=S(=O)([O-])C(F)(F)F :: 1.04
C#CCCCCCC [1-octyne] + CCCC[N+]1(C)CCCC1.O=S(=O)([O-])C(F)(F)F :: 7.88
C1CCCCCC1 [cycloheptane] + CCCC[N+]1(C)CCCC1.O=S(=O)([O-])C(F)(F)F :: 20.1

1. C1CCCC1 [cyclopentane] + CCCC[N+]1(C)CCCC1.O=S(=O)([O-])C(F)(F)F
2. CCCCCC [hexane] + CCCC[N+]1(C)CCCC1.O=S(=O)([O-])C(F)(F)F
3. CO [methanol] + CCCC[N+]1(C)CCCC1.O=S(=O)([O-])C(F)(F)F
4. CCCCCCCC [octane] + CCCC[N+]1(C)CCCC1.O=S(=O)([O-])C(F)(F)F
5. COC(C)(C)C [2-methoxy-2-methylpropane] + CCCC[N+]1(C)CCCC1.O=S(=O)([O-])C(F)(F)F
input: Put the entries in order of activity coefficient, starting with the largest number. Could you list the labels in the order requested?
output: 4, 2, 1, 5, 3
(4: 62.9, 2: 35.8, 1: 12.6, 5: 5.6, 3: 0.581)

====

- TEST_METHOD_NOTES: activity coefficient (dimensionless); of the first substance listed, at infinite dilution; xn = mol fraction of the nth substance listed
- REPORTED_CONDITIONS: 368.15 K; Liquid; Chromatography; x1 = 0
MEASURED_PROPERTY: activity coefficient

Examples from the recorded data:
Cc1cccc(C)c1 [1,3-dimethylbenzene] + CCCC[N+]1(C)CCCC1.O=S(=O)([O-])C(F)(F)F :: 3.53
CCCCCCCC [octane] + CCCC[N+]1(C)CCCC1.O=S(=O)([O-])C(F)(F)F :: 54.4
C#CCCCCCC [1-octyne] + CCCC[N+]1(C)CCCC1.O=S(=O)([O-])C(F)(F)F :: 7.99
Cc1ccccc1 [toluene] + CCCC[N+]1(C)CCCC1.O=S(=O)([O-])C(F)(F)F :: 2.35
C1CCCC1 [cyclopentane] + CCCC[N+]1(C)CCCC1.O=S(=O)([O-])C(F)(F)F :: 11
CO [methanol] + CCCC[N+]1(C)CCCC1.O=S(=O)([O-])C(F)(F)F :: 0.543
O [water] + CCCC[N+]1(C)CCCC1.O=S(=O)([O-])C(F)(F)F :: 0.712
CCCCCC [hexane] + CCCC[N+]1(C)CCCC1.O=S(=O)([O-])C(F)(F)F :: 31.3
C=CCCCCC [1-heptene] + CCCC[N+]1(C)CCCC1.O=S(=O)([O-])C(F)(F)F :: 20.8
C#CCCCCC [1-heptyne] + CCCC[N+]1(C)CCCC1.O=S(=O)([O-])C(F)(F)F :: 5.78

A. C1CCCCCCC1 [cyclooctane] + CCCC[N+]1(C)CCCC1.O=S(=O)([O-])C(F)(F)F
B. CCCCCCCCCC [decane] + CCCC[N+]1(C)CCCC1.O=S(=O)([O-])C(F)(F)F
C. C1CCOC1 [tetrahydrofuran] + CCCC[N+]1(C)CCCC1.O=S(=O)([O-])C(F)(F)F
D. CCCO [propan-1-ol] + CCCC[N+]1(C)CCCC1.O=S(=O)([O-])C(F)(F)F
input: Put the entries in order of activity coefficient, starting with the largest number. Could you list the labels in the order requested?
output: B, A, C, D
(B: 101, A: 22.2, C: 1.46, D: 0.953)
